Below is a list of entries, each paired with its recorded max response, negative = inhibition value.
Molecular target: Serine/threonine-protein kinase PLK1 (Homo sapiens)
Assay: qHTS for Inhibitors of PLK1-PDB (polo-like kinase 1 - polo-box domain): Primary Screen; note: series mostly up to about 57 µM; % is set by controls: 0 for no effect and ±100 for the full control effect; nearly all actives have a fitted effect of over 65% in size
Details: Plk1 PBD binding of FITC phosphopeptide, fluorescence polarization
From the text: The polo-like kinase 1 (Plk1) is a member of a conserved subfamily of serine / threonine protein kinases that plays a pivotal roles in cell proliferation. It has a C-terminal non-catalytic region called the polo-box domain (PBD) that plays a crucial role in the subcellular localization of the Plk1. […] This project employed a fluorescence polarization (FP) assay using a FITC-conjugated phospho-9-mer (p-9-mer) peptide and purified human Plk1 PBD protein. […]
The campaign covered roughly 360,000 compounds. About 10,000 (2.8%) were called active. Not shown: some 4% with an inconclusive outcome. Only a selection was taken, and actives are over-represented in it overall.
measure name: max response, negative = inhibition (%)

1. COc1cccc(-c2cc3nc(NCc4ccccc4OC)n(C)c(=O)c3s2)c1 = 3.07
2. COc1cccc(N2CCN(c3ccc4nnc(CCC(=O)N5CCN(C)CC5)n4n3)CC2)c1 = -2.01
3. O=C(Oc1ccc(F)cc1)N1CCOCC1 = -11.5
4. Cc1ccc(Sc2ccc(NC(=O)c3ccc(F)cc3)cc2C#N)cc1 = -2.21
5. CCOC(=O)c1cccc(NC(=O)CCc2nnc3ccc(N4CCOCC4)nn23)c1 = 2.15
6. CCOC(=O)C1=CCC2C(=O)N(Cc3ccccc3)C(=O)C12 (stereo unspecified) = -2.51
7. COCCCn1c(=O)/c(=C/c2ccccc2OC(C)C)s/c1=C(\C#N)C(=O)Nc1ccc(C(=O)O)cc1 = -29.5
8. COc1cc(C=C(OC(C)=O)c2ccc3c(c2)OCO3)cc(OC)c1OC = -7.84
9. CSc1ncc(C(=O)NCCCc2ccccc2)c(C)n1 = -4.81
10. O=C1Nc2ccccc2-n2nnnc2C1N1CCN(c2cccc(C(F)(F)F)n2)CC1 (stereo unspecified) = -6.8
11. O=C(Oc1cccc(C(=S)N2CCOCC2)c1)c1cccc(Cl)c1 = -12.2

All values here come from PubChem BioAssay AID720504.
